# measured.on: T1, biotin-labeled human PD-1 Fc protein (human, biotin-labeled (site not stated))
# T1 construct: also called PD-1-Fc-biotin
# assay.text: capture ELISA, antibody captured on plate, biotin-labeled human PD-1 Fc in solution
Let's look at some binders and their measured EC50.
Note: unit pM is implicit; provide only the numeric part.

Reported EC50 for chimeric D2H3 antibody (antibody, human IgG1, kappa, V domains shown, Mouse variable domains cloned in frame to human IgG1 and kappa constant regions; also called chD2H3) VH: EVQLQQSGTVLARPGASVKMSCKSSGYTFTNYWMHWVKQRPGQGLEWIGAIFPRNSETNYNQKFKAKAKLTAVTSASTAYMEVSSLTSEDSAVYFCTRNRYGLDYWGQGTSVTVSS VL: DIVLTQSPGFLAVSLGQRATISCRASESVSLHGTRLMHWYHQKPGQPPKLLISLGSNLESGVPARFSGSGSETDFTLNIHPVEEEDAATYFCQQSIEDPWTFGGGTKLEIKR : what is it?
170

Next binder: mouse anti-PD-1 monoclonal antibody D2A4 (antibody, V domains shown, Mouse antibody purified from a hybridoma; also called Mouse D2A4; mouse D2A4) VH: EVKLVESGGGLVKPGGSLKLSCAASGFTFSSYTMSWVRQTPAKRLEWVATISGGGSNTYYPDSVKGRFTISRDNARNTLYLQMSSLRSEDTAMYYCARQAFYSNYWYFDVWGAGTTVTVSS VL: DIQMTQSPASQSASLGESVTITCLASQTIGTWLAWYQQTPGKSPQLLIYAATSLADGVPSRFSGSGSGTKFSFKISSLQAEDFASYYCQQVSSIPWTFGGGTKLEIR
130

Next binder: chimeric D2A4 antibody (antibody, human IgG1, kappa, V domains shown, Mouse variable domains cloned in frame to human IgG1 and kappa constant regions; also called chD2A4; ChD2A4) VH: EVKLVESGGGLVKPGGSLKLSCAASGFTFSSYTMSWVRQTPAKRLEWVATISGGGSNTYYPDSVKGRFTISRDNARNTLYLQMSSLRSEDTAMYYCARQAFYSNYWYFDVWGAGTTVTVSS VL: DIQMTQSPASQSASLGESVTITCLASQTIGTWLAWYQQTPGKSPQLLIYAATSLADGVPSRFSGSGSGTKFSFKISSLQAEDFASYYCQQVSSIPWTFGGGTKLEIRR
240

Query binder follows.
Reported EC50 for mouse anti-PD-1 monoclonal antibody D2H3 (antibody, V domains shown, Mouse antibody purified from a hybridoma; also called Mouse D2H3; mouse D2H3) VH: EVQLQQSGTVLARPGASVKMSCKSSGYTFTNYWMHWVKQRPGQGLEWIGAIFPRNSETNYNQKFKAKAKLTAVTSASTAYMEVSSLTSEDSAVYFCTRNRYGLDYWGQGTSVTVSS VL: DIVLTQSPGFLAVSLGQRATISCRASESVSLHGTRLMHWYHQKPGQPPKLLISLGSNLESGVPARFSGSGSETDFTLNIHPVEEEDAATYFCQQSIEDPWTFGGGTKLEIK : what is it?
170
